- testedSystem: Cholecystokinin receptor type A (Homo sapiens, UniProt P32238)
- Sequence (P32238 whole entry): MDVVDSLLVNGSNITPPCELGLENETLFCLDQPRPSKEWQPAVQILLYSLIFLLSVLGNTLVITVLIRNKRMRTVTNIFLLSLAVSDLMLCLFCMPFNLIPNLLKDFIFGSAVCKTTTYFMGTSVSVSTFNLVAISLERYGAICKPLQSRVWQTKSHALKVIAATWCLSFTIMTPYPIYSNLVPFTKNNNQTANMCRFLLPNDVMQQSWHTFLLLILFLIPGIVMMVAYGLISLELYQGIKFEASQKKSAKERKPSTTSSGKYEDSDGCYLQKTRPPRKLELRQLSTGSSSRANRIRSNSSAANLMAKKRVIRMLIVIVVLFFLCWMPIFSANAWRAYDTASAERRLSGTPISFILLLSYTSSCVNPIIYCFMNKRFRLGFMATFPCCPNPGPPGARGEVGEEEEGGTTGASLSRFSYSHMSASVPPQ
- methodNotes: Displacement of [125I]-CCK-8 from human CCK1R expressed in human 1321N1 cell membranes after 2 hrs by SPA assay
Numbered stars: 1 amine (or outer) side, 2 acyl side, 3 side chain; on linkers, the order of the positions; unused ones are H or OH. Square brackets hold non-standard residues; d marks the D form. Peptide text beside a SMILES is read from it. * marks the point of attachment. Phe(4-CH2SO3H) = N[C@@H](Cc1ccc(CS(=O)(=O)O)cc1)C(=O)O; sY = N[C@@H](Cc1ccc(OS(=O)(=O)O)cc1)C(=O)O; C18 diacid = O=C(O)CCCCCCCCCCCCCCCCC(=O)*; γGlu = O=C(O)[C@H](CCC(=O)[*:2])N[*:1]; C14 diacid = O=C(O)CCCCCCCCCCCCC(=O)*; NMeF = CN[C@@H](Cc1ccccc1)C(=O)O; dNMeD = CN[C@H](CC(=O)O)C(=O)O; Nle = CCCC[C@H](N)C(=O)O; AEEA = NCCOCCOCC(=O)O
measuredProperty: IC50 (nM)
Give just the numeric value; nM need not be written.

Please review the following examples before continuing.
molecule | measuredProperty | endpointValue
CCCC[C@H](NC(=O)[C@H](Cc1c[nH]c2ccccc12)NC(=O)CNC(=O)[C@H](CC(C)C)NC(=O)[C@H](Cc1ccc(OS(=O)(=O)O)cc1)NC(=O)[C@H](CC(=O)O)NC(=O)COCCOCCNC(=O)COCCOCCNC(=O)CC[C@H](NC(=O)CCCCCCCCCCCCCCCCC(=O)O)C(=O)O)C(=O)N[C@@H](CC(=O)O)C(=O)N[C@@H](Cc1ccccc1)C(N)=O | IC50 | 0.275
CCCC[C@H](NC(=O)[C@H](Cc1c[nH]c2ccccc12)NC(=O)CNC(=O)[C@H](CC(C)C)NC(=O)[C@H](Cc1ccc(CS(=O)(=O)O)cc1)NC(=O)[C@H](CC(=O)O)NC(=O)COCCOCCNC(=O)COCCOCCNC(=O)CC[C@H](NC(=O)CCCCCCCCCCCCC(=O)O)C(=O)O)C(=O)N(C)[C@H](CC(=O)O)C(=O)N(C)[C@@H](Cc1ccccc1)C(N)=O ({C14 diacid-γGlu-AEEA-AEEA}-D[Phe(4-CH2SO3H)]LGW[Nle][dNMeD][NMeF]-NH2) | IC50 | 0.155
CCCC[C@H](NC(=O)[C@H](Cc1ccc(OS(=O)(=O)O)cc1)NC(=O)[C@H](CC(=O)O)NC(=O)COCCOCCNC(=O)COCCOCCNC(=O)CC[C@H](NC(=O)CCCCCCCCCCCCCCCCC(=O)O)C(=O)O)C(=O)NCC(=O)N[C@@H](Cc1c[nH]c2ccccc12)C(=O)N[C@@H](CCCC)C(=O)N[C@@H](CC(=O)O)C(=O)N[C@@H](Cc1c[nH]c2ccccc12)C(N)=O ({C18 diacid-γGlu-AEEA-AEEA}-D[sY][Nle]GW[Nle]DW-NH2) | IC50 | 2.24
CCCC[C@H](NC(=O)[C@H](Cc1ccc(CS(=O)(=O)O)cc1)NC(=O)[C@H](CC(=O)O)NC(=O)COCCOCCNC(=O)COCCOCCNC(=O)CC[C@H](NC(=O)CCCCCCCCCCCCCCCCC(=O)O)C(=O)O)C(=O)NCC(=O)N[C@@H](Cc1c[nH]c2ccccc12)C(=O)N[C@@H](CCCC)C(=O)N(C)[C@H](CC(=O)O)C(=O)N(C)[C@@H](Cc1ccccc1)C(N)=O ({C18 diacid-γGlu-AEEA-AEEA}-D[Phe(4-CH2SO3H)][Nle]GW[Nle][dNMeD][NMeF]-NH2) | IC50 | 0.0525

As a next step, examine the molecule that follows.
The molecule CCCC[C@H](NC(=O)[C@H](Cc1ccc(CS(=O)(=O)O)cc1)NC(=O)[C@H](CC(=O)O)NC(=O)COCCOCCNC(=O)[C@H](CCCCN)NC(=O)COCCOCCNC(=O)COCCOCCNC(=O)CC[C@H](NC(=O)CCCCCCCCCCCCCCCCC(=O)O)C(=O)O)C(=O)NCC(=O)N[C@@H](Cc1c[nH]c2ccccc12)C(=O)N[C@@H](CCCC)C(=O)N(C)[C@H](CC(=O)O)C(=O)N(C)[C@@H](Cc1ccccc1)C(N)=O ({C18 diacid-γGlu-AEEA-AEEA}-K[AEEA]D[Phe(4-CH2SO3H)][Nle]GW[Nle][dNMeD][NMeF]-NH2) , when measured on Cholecystokinin receptor type A (Homo sapiens, UniProt P32238), yielded IC50 of 0.0631
